- System: PA-TU-8902 (Pancreatic Carcinoma);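 note: after 72 h of two-drug dosing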
- experiment: Bliss excess, mean over the matrix (fraction); higher = more synergy
# binarize Bliss excess: threshold -0.006 inclusive, high side yes (1), low side no (0)

Query: Given the entry CC1(C)CCC(CN2CCN(c3ccc(C(=O)NS(=O)(=O)c4ccc(NCC5CCOCC5)c([N+](=O)[O-])c4)c(Oc4cnc5[nH]ccc5c4)c3)CC2)=C(c2ccc(Cl)cc2)C1 [Venetoclax] + C1CN(CCC1(C(=O)N[C@@H](CCO)C2=CC=C(C=C2)Cl)N)C3=NC=NC4=C3C=CN4 [Capivasertib] (first compound max 1 µM, 7x7, partner max 3 µM) , answer whether its Bliss excess meets or surpasses -0.006.
Response: no (0)

Query: Given the entry COc1cccc(OCCCN)c1-c1cc(Nc2cnc(C#N)cn2)n[nH]1 [Prexasertib] + CCc1c2c(nc3ccc(O)cc13)-c1cc3c(c(=O)n1C2)COC(=O)[C@]3(O)CC [SN-38] (first compound max 1 µM, 7x7, partner max 0.3 µM) , answer whether its Bliss excess meets or surpasses -0.006.
Response: yes (1)

Query: Given the entry NC1(C(=O)N[C@@H](CCO)c2ccc(Cl)cc2)CCN(c2ncnc3[nH]ccc23)CC1 [Capivasertib] + Cn1cnc2c(F)c(Nc3ccc(Br)cc3Cl)c(C(=O)NOCCO)cc21 [Selumetinib] (first compound max 10 µM, 7x7, partner max 10 µM) , answer whether its Bliss excess meets or surpasses -0.006.
Response: yes (1)

Query: Given the entry Cc1c2c(nn1C)CSCc1cc(n(C)n1)CSc1cc(c3ccccc3c1)OCCCc1c(C(=O)O)n(C)c3c-2c(Cl)ccc13 [AZD5991] + CCN(CCO)CCCOc1ccc2c(Nc3cc(CC(=O)Nc4cccc(F)c4)[nH]n3)ncnc2c1 [AZD2811] (first compound max 1 µM, 7x7, partner max 1 µM) , answer whether its Bliss excess meets or surpasses -0.006.
Response: no (0)

Query: Given the entry Cc1c2c(nn1C)CSCc1cc(n(C)n1)CSc1cc(c3ccccc3c1)OCCCc1c(C(=O)O)n(C)c3c-2c(Cl)ccc13 [AZD5991] + Cn1cnc2c(F)c(Nc3ccc(Br)cc3Cl)c(C(=O)NOCCO)cc21 [Selumetinib] (first compound max 1 µM, 7x7, partner max 3 µM) , answer whether its Bliss excess meets or surpasses -0.006.
Response: no (0)

Query: Given the entry Cc1cc2ncnn2cc1Nc1ncc2c(n1)n(C1CCOCC1)c(=O)n2C [AZD7648] + C[C@@H]1COCCN1C2=NC(=NC(=C2)C3(CC3)[S@](=N)(=O)C)C4=C5C=CNC5=NC=C4 [AZD6738] (first compound max 10 µM, 7x7, partner max 10 µM) , answer whether its Bliss excess meets or surpasses -0.006.
Response: yes (1)
